Biological target: voltage-sensitive sodium channels
Test: [3H]BTX binding to rat cortical synaptosomes
Conditions: non-depolarizing conditions, none = no displacement at 100 μM, read-out: IC50 (μM) [3H]BTX binding
Let's look at some compounds and their measured IC50.

Please fill in: IC50 reported for COC(=O)c1cc(NC(=O)N(c2ccccc2)c2ccccc2)c2c(Cl)cc(Cl)cc2n1 = 25 µM

---

Biological target: benzodiazepine binding site on the GABAA receptor
Assay: [3H]flunitrazepam binding, rat cortical membranes
Conditions: 5–200 μM DCUKA tested
measure_name: IC50

Please fill in: IC50 reported for O=C(O)c1cc(NC(=O)N(c2ccccc2)c2ccccc2)c2c(Cl)cc(Cl)cc2n1 = > 200 µM
